Source listed as patent US9353081B2.

# targetSystem: human CYP11B2 (Homo sapiens (Human), UniProt P19099)
# Sequence (P19099 25-503): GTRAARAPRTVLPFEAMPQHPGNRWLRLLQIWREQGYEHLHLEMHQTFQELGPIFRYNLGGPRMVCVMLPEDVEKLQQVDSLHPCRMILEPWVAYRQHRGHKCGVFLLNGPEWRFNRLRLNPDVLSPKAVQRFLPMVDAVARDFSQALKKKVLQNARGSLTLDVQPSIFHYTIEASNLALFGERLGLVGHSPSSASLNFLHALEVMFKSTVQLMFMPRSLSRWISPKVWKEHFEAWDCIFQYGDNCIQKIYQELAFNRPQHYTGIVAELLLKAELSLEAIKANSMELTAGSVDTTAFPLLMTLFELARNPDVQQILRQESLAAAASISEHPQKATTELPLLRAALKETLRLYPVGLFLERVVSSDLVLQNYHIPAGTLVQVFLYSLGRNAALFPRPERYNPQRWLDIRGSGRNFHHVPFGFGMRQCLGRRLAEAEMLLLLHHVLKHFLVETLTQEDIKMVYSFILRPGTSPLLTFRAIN
# protocolSummary: G-402 cellular enzyme assay, human CYP11B2 (aldosterone release, HTRF)
# experimentalContext: G-402 cells expressing human CYP11B2; 1 μM Deoxycorticosterone
Readings of EC50 for the listed molecules
Answer format reminder: number followed by unit.

Solved cases below.
CCC(=O)N[C@H]1c2cncc(-c3cc4c(cc3F)N(C)C(=O)CC4)c2CC[C@H]1F (single isomer, unassigned)	158 nM
CCS(=O)(=O)NC1CCCc2c(-c3cc4c(cc3F)N(C)C(=O)CC4)cncc21 (single isomer, unassigned; (-)) [Example 31]	1040 nM
CN1C(=O)CCc2cc(-c3cncc4c3CCC[C@H]4NC(=O)C3CC3)ccc21	46.2 nM
C[C@H](O)C(=O)NC1CCCc2c(-c3ccc4c(c3)CCC(=O)N4C)cncc21 (single isomer, unassigned; (-)) [Example 20]	823 nM
CCC(=O)N[C@@H]1c2cncc(-c3ccc4c(c3)CCC(=O)N4C)c2CC[C@H]1F (single isomer, unassigned)	4320 nM
CCS(=O)(=O)NC1CCc2c(-c3cc4c(cc3F)N(C)C(=O)CC4)cncc21 (racemic) [Example 25]	33.4 nM

IN: Specify reported EC50 for the molecule shown: CCS(=O)(=O)NC1CCCc2c(-c3ccc4c(c3)CCC(=O)N4C)cncc21 (single isomer, unassigned; (-)) [Example 5]
OUT: 1290 nM

IN: Specify reported EC50 for the molecule shown: C[C@H](O)C(=O)NC1CCCc2c(-c3ccc4c(c3)CCC(=O)N4C)cncc21 (some centres unmarked) [Example 17]
OUT: 31.6 nM

IN: Specify reported EC50 for the molecule shown: CCC(=O)NC1CCc2c(-c3cc(Cl)c4c(c3)CCC(=O)N4C)cncc21 (single isomer, unassigned; (+)) [Example 60]
OUT: 8.8 nM

IN: Specify reported EC50 for the molecule shown: CC(=O)N[C@@H]1CCCc2c(-c3ccc4c(c3)CCC(=O)N4C)cncc21
OUT: 4.8 nM

IN: Specify reported EC50 for the molecule shown: CN1C(=O)CCc2cc(-c3cncc4c3CCC[C@H]4NS(=O)(=O)C3CC3)ccc21
OUT: 35.5 nM

IN: Specify reported EC50 for the molecule shown: CN1C(=O)CCc2cc(-c3cncc4c3CCC[C@H]4NS(C)(=O)=O)ccc21
OUT: 17 nM

IN: Specify reported EC50 for the molecule shown: CCC(=O)N[C@@H]1c2cncc(-c3ccc4c(c3)CCC(=O)N4C)c2CC[C@H]1C (single isomer, unassigned)
OUT: 1820 nM

IN: Specify reported EC50 for the molecule shown: C[C@@H](O)C(=O)NC1CCCc2c(-c3ccc4c(c3)CCC(=O)N4C)cncc21 (some centres unmarked) [Example 16]
OUT: 30.8 nM

IN: Specify reported EC50 for the molecule shown: CN1C(=O)CCc2cc(-c3cncc4c3CCC[C@H]4N)ccc21
OUT: 5.6 nM

IN: Specify reported EC50 for the molecule shown: CCC(=O)N[C@@H]1c2cncc(-c3cc4c(cc3F)N(C)C(=O)CC4)c2CC[C@H]1F (single isomer, unassigned)
OUT: 2780 nM

IN: Specify reported EC50 for the molecule shown: CCC(=O)NC1CCCc2c(-c3cc(Cl)c4c(c3)CCC(=O)N4C)cncc21 (racemic) [Example 33]
OUT: 79.8 nM

IN: Specify reported EC50 for the molecule shown: CN1C(=O)CCc2cc(-c3cncc4c3CCCN4CCNC(=O)OC(C)(C)C)ccc21
OUT: 23 nM

IN: Specify reported EC50 for the molecule shown: CCC(=O)N[C@@H]1c2cncc(-c3cc4c(cc3F)N(C)C(=O)CC4)c2CC[C@@H]1C (single isomer, unassigned)
OUT: 452 nM

IN: Specify reported EC50 for the molecule shown: CCC(=O)NC1CCCc2c(-c3cc(Cl)c4c(c3)CCC(=O)N4C)cncc21 (single isomer, unassigned; (+)) [Example 41]
OUT: 16.6 nM

IN: Specify reported EC50 for the molecule shown: CCC(=O)N[C@H]1c2cncc(-c3ccc4c(c3)CCC(=O)N4C)c2CC[C@H]1F (single isomer, unassigned)
OUT: 122 nM

IN: Specify reported EC50 for the molecule shown: CN1C(=O)CCc2cc(-c3cncc4c3CCC[C@H]4NC(=O)c3ncccc3Cl)ccc21
OUT: 5.3 nM
